Tested on: U2OS
METHOD NOTES: Multiplex assay against U2OS
Format: toxicity, cell-based
ASSAY CONTEXT: human, 12 h, 1 µM, compound concentration 1 uM, replicate 1
TEST READOUT: Population Mitochondria Different-Phenotype (%)
Answers are plain numbers, in %.

Example results:
Cc1c(Cc2ccc3ccccc3n2)c2cc(F)ccc2n1CC(=O)O [TIMAPIPRANT] ... 1
Nc1nc(CC(=O)Nc2ccc(CCNC[C@H](O)c3ccccc3)cc2)cs1 [MIRABEGRON] ... 3
C[C@H](NC(=O)CNC(=O)c1cccc(Cl)c1)c1ccccc1 ... 4

For each listed entry, give its Population Mitochondria Different-Phenotype (%).
1. O=c1nc2[nH]c3ccccc3nc-2c(=O)[nH]1 [ALLOXAZINE]
2. Cc1cc(O)c(-c2ccc([C@@H](C)CN(C)C)cc2)c2c1[nH]c(=O)c1sccc12
3. Cc1sc2c(c1C)C(c1ccc(Cl)cc1)=N[C@H](CC(=O)OC(C)(C)C)c1nnc(C)n1-2
4. CCC(=O)OCC(=O)[C@@]1(OC(=O)CC)[C@@H](C)C[C@H]2[C@@H]3CCC4=CC(=O)C=C[C@]4(C)[C@@]3(Cl)[C@@H](O)C[C@@]21C [BECLOMETHASONE DIPROPIONATE]
5. CCn1c(-c2nc3cc(C(=O)N4CCCC(N)C4)ccc3n2C)cc2ccccc21.Cl (stereo not drawn)

1. 0
2. 17
3. 4
4. 4
5. 3

###

What Population Mitotic Cells (%) was measured for each of the following?
Test system: Fibroblast
METHOD NOTES: Multiplex assay against human fibroblast
Format: toxicity, cell-based
ASSAY CONTEXT: 12 h, 1 µM, compound concentration 1 uM, replicate 2
One number for each entry, in %.

Examples with their reported Population Mitotic Cells (%) follow.
Cc1sc2c(c1C)C(c1ccc(Cl)cc1)=N[C@H](CC(=O)OC(C)(C)C)c1nnc(C)n1-2 ... 66
N[C@](CC1c2ccccc2Oc2ccccc21)(C(=O)O)[C@H]1C[C@@H]1C(=O)O ... 41
C=CCN1C[C@H](C(=O)N(CCCN(C)C)C(=O)NCC)C[C@@H]2c3cccc4[nH]cc(c34)C[C@H]21 ... 64
COc1c(Nc2ccc(S(C)(=O)=O)nc2C)ncnc1OC1CCN(C(=O)OC(C)C)CC1 ... 57
CC(F)(F)CN1CCOc2c(nn(-c3ccccc3Cl)c2-c2ccc(Cl)cc2)C1=O ... 68

Give one value of Population Mitotic Cells (%) per listed compound.
1. O=c1nc2[nH]c3ccccc3nc-2c(=O)[nH]1
2. COc1ccc2c(c1OCc1ccccc1)C[C@@H](C(=O)O)N(C(=O)C(c1ccccc1)c1ccccc1)C2

1: 62; 2: 61

###

Tested on: Fibroblast
METHOD NOTES: Multiplex assay against human fibroblast
Format: toxicity, cell-based
ASSAY CONTEXT: 48 h, 10 µM, compound concentration 10 uM, replicate 2
# note: boundary value 40% maps to no (0); Population Fragmented Nuclei (%) below it maps to yes (1)

Observe how each entry below is paired with its result.
CCCCC[C@H](O)/C=C/[C@H]1[C@H](O)CC(=O)[C@@H]1CCCCCCC(=O)O ... yes (1)
COc1ccc2[nH]c(I)c(CCNC(C)=O)c2c1 ... no (0)
Cc1sc2c(c1C)C(c1ccc(Cl)cc1)=N[C@H](CC(=O)OC(C)(C)C)c1nnc(C)n1-2 ... yes (1)
O=c1ccc2ccc(OCCCCN3CCN(c4cccc5sccc45)CC3)cc2[nH]1 ... yes (1)
CC(C)(O)C(=O)N1CCN(c2ccc(C(F)(F)F)c(C3=C(c4c[nH]c5ccccc45)C(=O)NC3=O)c2)CC1 ... yes (1)
S=C(NCCCc1c[nH]cn1)NCCCN(Cc1ccc(Cl)c(Cl)c1)c1ccc(Br)cn1 ... yes (1)

Dear colleague, could you confirm whether Population Fragmented Nuclei (%) of CN1CCN2c3ccccc3Cc3ccccc3C2C1.Cl (centres undefined) [MIANSERIN HYDROCHLORIDE] falls below 40%? Thanks.
yes (1)

Now try `Cc1cc(NC(=O)NCCN2CCC(O)(Cc3ccccc3)CC2)c2ccccc2n1` .
yes (1)

Ok, now `O=c1nc2[nH]c3ccccc3nc-2c(=O)[nH]1`
no (0)
